Taken from paper PMC5540273.

- Tested on: LKB1
- Construct: gene STK11
- MEASUREMENT_CONTEXT: concentration: 1 μM, replicates: in singlicate; n = 1;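 further: KINOMEscan kinase panel screen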
REPORTED_ENDPOINT: %Inh (%)
Give bare numbers, in %.

COc1cccc(-c2nc(-c3ccccc3)[nH]c2-c2ccncc2)c1
4
COc1ccc(C2=C(Nc3cccc(O)c3)C(=O)NC2=O)cc1
0

Here is another compound to look at.
Data point: CC(C)NCC(Cc1ccccc1)NC(=O)c1cc(Br)c(-c2ccnc3[nH]ccc23)s1.Cl.Cl (stereo not drawn) ; %Inh = 0

###

- Tested on: DLK
- Construct: gene MAP3K12
- MEASUREMENT_CONTEXT: concentration: 1 μM, replicates: in singlicate; n = 1
REPORTED_ENDPOINT: %Inh
Reply with the number and its unit after it.

Cc1cccc(Nc2nc(N[C@H]3CCCC[C@H]3N)ncc2C(N)=O)c1.Cl
19%
COc1cccc(NC(=O)NCCNc2ccnc(Nc3ccc(F)cc3)n2)c1
21%
CCOc1nccc(-c2c(-c3ccc(F)cc3)ncn2C2CCNCC2)n1
0%

// input: 2 compounds below; output: %Inh for each
1. CS(=O)(=O)c1cccc(CNc2nc(Nc3ccc4c(c3)CCC(=O)N4)ncc2C(F)(F)F)c1
2. CC(=O)Nc1cn2nc(Oc3cccc(NC(=O)c4cccc(C(F)(F)F)c4)c3)ccc2n1

Resp:
13%
0%

###

- Tested on: RIPK1
- MEASUREMENT_CONTEXT: concentration: 1 μM, replicates: in singlicate; n = 1
REPORTED_ENDPOINT: %Inh (%)
Give bare numbers, in %.

O=C(O)C(F)(F)F.O=c1[nH]ccc2nc(N[C@@H]3CCNC3)nc(Nc3ccc4c(c3)S(=O)(=O)CC4)c12 [GSK2181306]
0
CNc1nccc(-c2ccc3c(N)n[nH]c3c2)n1 [GSK2206003]
8
CN(c1ccc2c(c1)nc(NCc1ccccc1)n2C)c1ccnc(Nc2ccc(CS(C)(=O)=O)cc2)n1.Cl [GW811603]
100

Batch request: %Inh per item, same order as input.
1. CN(C)CCNS(=O)(=O)c1ccc(-c2ccnc3[nH]ccc23)cc1 [GSK977620]
2. Nc1ncnc2scc(-c3ccc(NC(=O)Cc4cc(F)ccc4F)cc3)c12.O=C(O)C(F)(F)F [SB-731254-M]
3. Cl.N#CCc1ccc(Nc2nccc(Nc3ccc(Oc4ccccc4)cc3)n2)cc1 [GW639905]
4. COc1cc(Nc2nccc(N3CCC(NS(=O)(=O)c4ccc(NC(C)=O)cc4)CC3)n2)cc(OC)c1OC [GSK1379825]
5. Cl.O=C(Nc1ccc(Oc2ccc3[nH]c(NC(=O)c4ccco4)nc3c2)cc1)Nc1cc(C(F)(F)F)ccc1F [GW683134]
6. COC(=O)Nc1nc2ccc(Oc3ccc(NC(=O)Nc4cc(C(F)(F)F)ccc4F)cc3)cc2[nH]1.Cl [GW654607]
7. Cc1ccccc1CC(=O)N1CCc2cc(-c3cn(C)c4ncnc(N)c34)ccc21 [GSK2603346]
8. Cc1ccc(O)cc1Nc1ccnc2cc(-c3ccc(CN4CCCCC4)o3)ccc12 [GW557777]

Resp:
1: 0; 2: 0; 3: 0; 4: 81; 5: 86; 6: 74; 7: 100; 8: 12

###

Please respond with reported %Inh for every item in the list.
- Test system: PAK1
- MEASUREMENT_CONTEXT: concentration: 1 μM, replicates: in singlicate; n = 1
One number for each entry, in %.

Example entries and their recorded answers appear below.
COc1cc(Nc2ccnc3cc(-c4ccncc4)ccc23)cc(OC)c1OC.Cl
0
Cc1ccc(NC(=O)c2ccnc(N3CCCCC3)c2)cc1-c1ccc(C(=O)NCC2CC2)cc1
0

Parameter requested: %Inh. Apply to each item below.
1. Cl.Cl.NC(CNC(=O)c1cc(Br)c(-c2ccnc3[nH]ccc23)s1)c1ccccc1 (stereo not shown)
2. CS(=O)(=O)c1cccc(CNc2nc(Nc3ccc4c(c3)CCC(=O)N4)ncc2C(F)(F)F)c1

Resp:
1: 32; 2: 0

###

Please go through the items and note down their %Inh.
- System: RSK4(Kin.Dom.2-C-terminal)
- Construct: gene RPS6KA6
- MEASUREMENT_CONTEXT: concentration: 1 μM, replicates: in singlicate; n = 1
Give bare numbers, in %.

Use the examples below as a reference point.
CNc1nccc(-c2ccc3c(N)n[nH]c3c2)n1
24
CN(C)CCNS(=O)(=O)c1ccc(-c2ccnc3[nH]ccc23)cc1
22

State recorded %Inh for all listed molecules.
1. COc1cccc(C2=C(Nc3cccc(O)c3)C(=O)NC2=O)c1
2. Cl.Cl.NCC(NC(=O)c1cc(-c2cccnc2)c(-c2ccnc3[nH]ccc23)s1)c1ccccc1 (stereo not drawn)
3. CN1CCN(Cc2ccc(NC(=O)Nc3ccc(N(C)c4ccnc(Nc5ccc(CS(C)(=O)=O)cc5)n4)cc3)cc2)CC1.Cl
4. CCNC(=O)/C=C/c1n[nH]c2cc(Sc3ccccc3C(=O)NC)ccc12
5. c1ccc(Oc2ccc(Nc3ccnc4cc(-c5ccc(CN6CCCCC6)o5)ccc34)cc2)nc1
6. CN(C)c1ncnc2nc[nH]c12
7. CN(c1ccc(NC(=O)Nc2cccc(Cl)c2)cc1)c1ccnc(N)n1.Cl

Resp:
37
31
57
24
1
8
0

###

Field: %Inh. Provide a value for each of the molecules that follow.
- Test system: NIK
- Construct: gene MAP3K14
- MEASUREMENT_CONTEXT: concentration: 1 μM, replicates: in singlicate; n = 1
One number for each entry, in %.

Guide cases for %Inh, answers given:
CN(c1ccc(F)c(NC(=O)c2cccc(OC(C)(C)C#N)c2Cl)c1)c1ccc2nc(NC(=O)C3CC3)sc2n1
0
Cn1cc(-c2cnc(N)c3c(-c4ccc5c(c4)CCN5C(=O)Cc4ccccc4)csc23)cn1
0
COc1cccc(-c2nc(-c3ccccc3)[nH]c2-c2ccncc2)c1
0
CCOc1nccc(-c2c(-c3ccc(F)cc3)ncn2C2CCNCC2)n1
5

Dear reader, for each entry below, please note its %Inh.
1. CN(C)CCNS(=O)(=O)c1ccc(-c2ccnc3[nH]ccc23)cc1
2. Cc1ccc(-c2ccc3occ(-c4ccc(S(C)=O)cc4)c3c2)nn1 (stereo not drawn)
3. Nc1ncc(-c2ccc3nccc(-c4ccncc4)c3c2)cc1S(=O)(=O)N1CCCCC1
4. Fc1cc(Cl)ccc1Nc1ccnc2cc(-c3ccc(CN4CCOCC4)o3)ccc12

Resp:
[0, 0, 11, 4]

// batch mode: one %Inh value per listed entry
1. Cc1ccc(NC(=O)c2ccc(Cl)c(Cl)c2)cc1-c1ccc(C(=O)Nc2ccncc2)cc1
2. COc1cccc(NC(=O)NCCNc2ccnc(Nc3ccc(F)cc3)n2)c1

Resp:
[0, 27]

For each entry beneath this line, provide reported %Inh.
1. CNc1nccc(-c2ccc3c(N)n[nH]c3c2)n1
2. Cc1ccc(O)cc1Nc1ccnc2ccc(C(C)(C)C)cc12
3. COC(=O)Nc1nc2ccc(Oc3ccc(CC(=O)Nc4cc(C(F)(F)F)ccc4F)cc3)cc2[nH]1

Resp:
[33, 31, 25]

Please state, for each entry, its recorded %Inh.
1. O=C(O)C(F)(F)F.O=c1[nH]ccc2nc(N[C@@H]3CCNC3)nc(Nc3cc(Cl)cc(Cl)c3)c12
2. O=C(Nc1n[nH]c2nc(-c3ccccc3O)ccc12)C1CC1
3. COc1cc(Nc2nccc(N3CCC(NS(=O)(=O)c4ccc(NC(C)=O)cc4)CC3)n2)cc(OC)c1OC
4. CC(=O)Nc1cn2nc(Oc3cccc(NC(=O)c4cccc(C(F)(F)F)c4)c3)ccc2n1
5. Nc1cccc(-c2ccc3c(N)n[nH]c3c2)c1

Resp:
[64, 18, 26, 0, 6]

###

Would you mind telling me the reported %Inh of each entry?
- System: MTOR
- MEASUREMENT_CONTEXT: concentration: 1 μM, replicates: in singlicate; n = 1
Numbers only, in %.

Recorded results for 2 molecules are shown here.
CCNc1nccc(-c2c(-c3ccc(F)cc3)ncn2C2CCN(C)CC2)n1
0
O=C(Nc1c(F)cccc1F)c1cc(C(=O)c2ccccc2F)c[nH]1 [GSK1326180]
18

For each of the items listed, what is its %Inh?
1. CCOc1nccc(-c2c(-c3ccc(F)cc3)ncn2C2CCNCC2)n1 [SB-249175]
2. Cc1ccc(NC(=O)c2ccnc(N3CCCCC3)c2)cc1-c1ccc(C(=O)NCC2CC2)cc1 [GW775610]
3. Cc1ccc(NC(=O)c2ccc(Cl)c(Cl)c2)cc1-c1ccc(C(=O)Nc2ccncc2)cc1 [GSK1398460]

Resp:
0
9
0

###

Give measured %Inh for each item. Keep answers brief.
- System: VEGFR2
- Construct: gene KDR
- MEASUREMENT_CONTEXT: concentration: 1 μM, replicates: in singlicate; n = 1
Answers are plain numbers, in %.

O=C(Nc1n[nH]c2nc(-c3ccccc3)ccc12)C1CC1
0
CN(C)CCOc1ccc(-c2cc(-c3ccc(Cl)c(O)c3)c(-c3ccncc3)[nH]2)cc1.Cl.Cl
21
O=C(Nc1n[nH]c2cc(-c3cccs3)ccc12)C1CC1
57
Cn1cc(-c2ccc3c(c2)CCN3C(=O)Cc2cc(F)cc(F)c2F)c2c(N)ncnc21
0

# evaluate next
Sure, the documented %Inh for COc1cccc2c(-c3ccncc3)c(-c3ccc(F)cc3)nn12 is 0
